The reported numbers originate from ChEMBL document CHEMBL6182930.

# assayProcedure: Oral bioavailability in rat at 10 mg/kg measured after 24 hrs by LC-MS/MS analysis
# Assay type: ADME, organism-based
# measurementParameters: in vivo
measuredParameter: bioavailability (%)
Record the value in %, omitting the unit from your answer.

Give reported bioavailability value for COc1ccc(C(=O)/C=C/C(=O)N2CCN(CC3CCN(Cc4cccc(Nc5ncc6ccn(CCCNC(=O)C7CCC7)c6n5)c4)CC3)CC2)cc1
2.77
